Taken from ChEMBL document CHEMBL5223090.

Measured target: Histone deacetylase 2 (Homo sapiens, UniProt Q92769)
Sequence (Q92769 whole entry): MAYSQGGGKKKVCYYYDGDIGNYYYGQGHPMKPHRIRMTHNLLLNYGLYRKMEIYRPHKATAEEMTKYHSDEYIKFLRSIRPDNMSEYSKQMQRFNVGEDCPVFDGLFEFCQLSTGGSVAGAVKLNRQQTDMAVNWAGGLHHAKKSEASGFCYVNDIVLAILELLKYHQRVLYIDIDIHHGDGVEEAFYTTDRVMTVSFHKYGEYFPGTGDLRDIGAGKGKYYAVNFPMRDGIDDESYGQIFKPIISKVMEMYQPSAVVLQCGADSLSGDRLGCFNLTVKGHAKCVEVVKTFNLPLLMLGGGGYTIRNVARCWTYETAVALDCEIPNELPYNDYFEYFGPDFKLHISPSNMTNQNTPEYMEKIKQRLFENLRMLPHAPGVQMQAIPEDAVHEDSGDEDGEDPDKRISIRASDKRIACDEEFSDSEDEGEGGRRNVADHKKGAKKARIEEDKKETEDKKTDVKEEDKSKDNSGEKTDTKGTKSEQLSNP
Parameter measured: IC50

* Cc1ccc(-c2cc(/C=C/c3ccc(C(=O)NO)cc3)ccn2)c(F)c1 | > 10 µM

---

Test system: MGC-803
Procedure text: cells
Measurement setup: Homo sapiens
Parameter measured: IC50 (µM)

* CNCCCNCc1coc2cc(-c3ccc(C)cc3)c(-c3ccc(C#N)cc3)cc12 | 6.47

---

Measured target: UniProt P21397
Sequence (P21397 whole entry): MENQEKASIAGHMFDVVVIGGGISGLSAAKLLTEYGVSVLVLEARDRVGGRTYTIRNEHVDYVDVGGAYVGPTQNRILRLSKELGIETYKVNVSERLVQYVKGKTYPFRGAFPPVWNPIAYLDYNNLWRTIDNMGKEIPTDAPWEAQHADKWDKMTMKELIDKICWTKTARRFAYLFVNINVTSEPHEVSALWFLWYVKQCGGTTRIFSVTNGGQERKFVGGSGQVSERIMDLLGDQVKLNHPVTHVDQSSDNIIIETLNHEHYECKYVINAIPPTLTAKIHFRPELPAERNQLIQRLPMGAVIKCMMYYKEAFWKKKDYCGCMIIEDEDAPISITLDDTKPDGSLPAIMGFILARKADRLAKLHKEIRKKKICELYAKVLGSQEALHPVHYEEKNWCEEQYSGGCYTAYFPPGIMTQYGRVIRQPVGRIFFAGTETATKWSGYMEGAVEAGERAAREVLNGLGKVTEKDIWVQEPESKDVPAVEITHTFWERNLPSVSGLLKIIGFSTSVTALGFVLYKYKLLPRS
Procedure text: Inhibition of MAO-A (unknown origin) at 0.4 uM relative to control
Parameter measured: inhibition at 0.4 µM (%)

- COc1cc2c(c(O)c1OC)c(=O)c1ccccc1n2C [ARBORININE]: 23.7

---

Measured target: MAO-B (Homo sapiens, UniProt P27338)
Sequence (P27338 whole entry): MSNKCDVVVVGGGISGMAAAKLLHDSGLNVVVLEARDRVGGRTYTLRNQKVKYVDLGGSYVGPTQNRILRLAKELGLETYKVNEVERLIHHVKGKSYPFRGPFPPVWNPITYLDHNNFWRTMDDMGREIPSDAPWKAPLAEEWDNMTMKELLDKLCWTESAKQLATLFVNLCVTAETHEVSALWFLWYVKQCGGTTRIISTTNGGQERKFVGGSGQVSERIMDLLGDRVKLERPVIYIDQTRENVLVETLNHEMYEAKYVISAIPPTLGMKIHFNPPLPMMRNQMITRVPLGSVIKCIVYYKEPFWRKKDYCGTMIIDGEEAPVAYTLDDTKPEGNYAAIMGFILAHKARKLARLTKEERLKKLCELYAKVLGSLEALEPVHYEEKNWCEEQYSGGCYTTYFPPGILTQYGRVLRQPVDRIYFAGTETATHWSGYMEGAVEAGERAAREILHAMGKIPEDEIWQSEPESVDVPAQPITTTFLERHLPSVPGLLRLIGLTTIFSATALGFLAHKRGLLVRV
Procedure text: Inhibition of MAO-B (unknown origin) at 0.4 uM relative to control
Parameter measured: inhibition at 0.4 µM (%)

* COc1cc2c(c(O)c1OC)c(=O)c1ccccc1n2C | 31

---

System: A549
Procedure text: cells
Measurement setup: Homo sapiens
pIC50: −log10 of the molar value.
Parameter measured: pIC50

- COc1cc(F)c(/C=C/c2ccc(C(=O)NO)cc2)cc1OC: 5.80
- O=C(CC(=O)c1ccc(C(F)(F)F)cc1)Nc1cccc2c1CCCN2Cc1ccc(OC2CCNCC2)cc1: 5.07
- Cn1c(C(=O)Nc2cccc3c2CCCN3Cc2ccc(OC3CCNCC3)cc2)cc2sccc21: 5.28
- CNCCCNCc1coc2cc(-c3ccc(C)cc3)c(-c3ccc(C#N)cc3)cc12: 5.39
- Cn1c(C(=O)CC(=O)Nc2cccc3c2CCCN3Cc2ccc(OC3CCNCC3)cc2)cc2ccccc21: 5.12
- Cn1c(C(=O)Nc2cccc3c2CCCN3Cc2ccc(OC3CCNCC3)cc2[N+](=O)[O-])cc2sccc21: 5.67

---

Procedure text: in vitro
Measurement setup: human, THLE-2 cells
Parameter measured: IC50 (µM)

• CNCCCNCc1coc2cc(-c3ccc(C)cc3)c(-c3ccc(C#N)cc3)cc12 = 4.2

---

Test system: Bel-7402
Procedure text: cells
Measurement setup: Homo sapiens
Parameter measured: IC50 (µM)

- COc1ccc(S(=O)(=O)N(CCSC(=S)N2CCN(C)CC2)c2cc(OC)c(OC)c(OC)c2)cc1: 0.32
